As a worked illustration, we turn to IC50 data collected for M-phase inducer phosphatase 3 (Homo sapiens, UniProt P30307).
RESULT TYPE: IC50 (µM)

[P] O=C1C=C(O)C(=O)C(c2c[nH]c3cc(Cl)ccc23)=C1O
[Q] O=C1C=C(O)C(=O)C(c2c[nH]c3c(Cc4ccccc4)cccc23)=C1O
[R] CC(C)=CCC/C(C)=C/Cc1cccc2c(C3=C(O)C(O)=CC(=O)C3=O)c[nH]c12
input: # desc sort on IC50 across 3 compounds API: response body holds the labels in the requested order.
output: P, Q, R

====

target: M-phase inducer phosphatase 2 (Homo sapiens) (UniProt P30305); experiment: Percent inhibition of cell division cycle 25B at 50 uM
Sequence (P30305 whole entry): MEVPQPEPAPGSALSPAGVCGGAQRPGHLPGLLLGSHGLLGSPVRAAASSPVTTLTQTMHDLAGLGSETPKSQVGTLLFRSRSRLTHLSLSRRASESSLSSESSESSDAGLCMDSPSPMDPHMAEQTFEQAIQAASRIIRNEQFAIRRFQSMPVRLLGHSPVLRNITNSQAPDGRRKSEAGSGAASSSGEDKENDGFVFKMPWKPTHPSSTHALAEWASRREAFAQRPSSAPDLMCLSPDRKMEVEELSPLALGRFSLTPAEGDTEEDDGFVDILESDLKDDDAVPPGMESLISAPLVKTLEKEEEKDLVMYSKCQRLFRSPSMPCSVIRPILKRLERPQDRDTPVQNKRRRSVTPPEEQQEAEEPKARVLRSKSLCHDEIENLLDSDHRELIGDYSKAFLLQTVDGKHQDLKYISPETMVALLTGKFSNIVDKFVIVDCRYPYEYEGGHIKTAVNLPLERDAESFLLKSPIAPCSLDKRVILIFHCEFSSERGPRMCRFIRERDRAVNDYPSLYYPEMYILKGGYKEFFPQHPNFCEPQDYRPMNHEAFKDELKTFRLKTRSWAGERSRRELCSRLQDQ
RESULT TYPE: inhibition (%)

input: Quick check: inhibition of O=C1C=C(O)C(=O)C(c2c[nH]c3c(-c4ccccc4)cccc23)=C1O ?
output: 92

input: Quick check: inhibition of CC1(c2[nH]c3ccccc3c2C2=C(O)C(O)=CC(=O)C2=O)CCCCC1 ?
output: 11

[P] CC(C)=CCC/C(C)=C/CC/C(C)=C/Cc1cccc2c(C3=C(O)C(O)=CC(=O)C3=O)c[nH]c12
[Q] Cc1cccc2[nH]cc(C3=C(O)C(O)=CC(=O)C3=O)c12
[R] COc1cccc2[nH]cc(C3=C(O)C(O)=CC(=O)C3=O)c12
input: Sort (3 compounds) by inhibition: min first. API: response body holds the labels in the requested order.
output: Q, R, P
(Q: 9%, R: 21%, P: 89%)

====

biological target: M-phase inducer phosphatase 3 (Homo sapiens); test: Percent inhibition of cell division cycle 25 degree C at 50 uM
RESULT TYPE: inhibition (%)

Some solved cases for reference:
input: Quick check: inhibition of COc1ccc2[nH]cc(C3=C(O)C(O)=CC(=O)C3=O)c2c1 ?
output: 0

input: Quick check: inhibition of O=C1C=C(O)C(=O)C(c2c[nH]c3ccc(OCc4ccccc4)cc23)=C1O ?
output: 26

input: Quick check: inhibition of Cc1ccc2[nH]c(C)c(C3=C(O)C(O)=CC(=O)C3=O)c2c1 ?
output: 25

input: Quick check: inhibition of O=C1C=C(O)C(=O)C(c2c[nH]c3cccc(OCc4ccccc4)c23)=C1O ?
output: 2

input: Quick check: inhibition of CC1(c2[nH]c3ccccc3c2C2=C(O)C(O)=CC(=O)C2=O)CCCCC1 ?
output: 22

[A] O=C1C=C(O)C(=O)C(c2c[nH]c3cc(F)ccc23)=C1O
[B] O=C1C=C(O)C(=O)C(c2c[nH]c3c(Cc4ccccc4)cccc23)=C1O
[C] Cc1ccc2c(C3=C(O)C(O)=CC(=O)C3=O)c(C)[nH]c2c1
[D] CCc1[nH]c2ccccc2c1C1=C(O)C(O)=CC(=O)C1=O
input: Sort (4 molecules) by inhibition: min first. API: response body holds the labels in the requested order.
output: C, D, A, B

====

target: M-phase inducer phosphatase 2 (Homo sapiens, UniProt P30305, R496L); experiment: Inhibitory concentration of compound against mutant R482L of Cdc25B phosphatase was determined
Sequence (P30305 whole entry R496L): as the sequence (P30305 whole entry) above, with R496L counted along it
RESULT TYPE: IC50 (µM)
Express it in µM; write the number only.

input: Quick check: IC50 of O=C1C=C(O)C(=O)C(c2c[nH]c3ccccc23)=C1O ?
output: 73

====

target: M-phase inducer phosphatase 2 (Homo sapiens); experiment: Inhibitory constant of compound against Cell division cycle 25B was determined using mFP as a substrate
RESULT TYPE: Ki (nM)

[I] CC(C)=CCc1c(Cl)cc(Cl)c2c(C3=C(O)C(O)=CC(=O)C3=O)c[nH]c12
[II] CC(C)=CCc1cccc2c(C3=C(O)C(O)=CC(=O)C3=O)c[nH]c12
input: For this pair, I and II , which shows a numerically higher Ki? State the label of the item chosen.
output: II

====

molecular target: M-phase inducer phosphatase 2 (Homo sapiens, UniProt P30305, E488Q); assay: Inhibitory concentration of compound against mutant E474Q of Cdc25B phosphatase was determined
Sequence (P30305 whole entry E488Q): as the sequence (P30305 whole entry) above, with E488Q counted along it
RESULT TYPE: IC50 (µM)
Express it in µM; write the number only.

input: Quick check: IC50 of O=C1C=C(O)C(=O)C(c2c[nH]c3ccccc23)=C1O ?
output: 200

====

target: M-phase inducer phosphatase 3 (Homo sapiens); experiment: Percent inhibition of cell division cycle 25 degree C at 50 uM
RESULT TYPE: inhibition (%)

Some solved cases for reference:
input: Quick check: inhibition of O=C1C=C(O)C(=O)C(c2c[nH]c3c(OCc4ccccc4)cccc23)=C1O ?
output: 85

input: Quick check: inhibition of CC(C)=CCc1cccc2c(C3=C(O)C(O)=CC(=O)C3=O)c[nH]c12 ?
output: 84

[I] CC(C)=CCC/C(C)=C/CC/C(C)=C/Cc1cccc2c(C3=C(O)C(O)=CC(=O)C3=O)c[nH]c12
[II] Cn1cc(C2=C(O)C(O)=CC(=O)C2=O)c2ccccc21
[III] Cc1[nH]c2ccccc2c1C1=C(O)C(O)=CC(=O)C1=O
input: Sort (3 compounds) by inhibition: min first. API: response body holds the labels in the requested order.
output: III, II, I
(III: 5%, II: 19%, I: 85%)

====

target: M-phase inducer phosphatase 3 (Homo sapiens) (UniProt P30307); test: Percent inhibition of cell division cycle 25 degree C at 50 uM
Sequence (P30307 whole entry): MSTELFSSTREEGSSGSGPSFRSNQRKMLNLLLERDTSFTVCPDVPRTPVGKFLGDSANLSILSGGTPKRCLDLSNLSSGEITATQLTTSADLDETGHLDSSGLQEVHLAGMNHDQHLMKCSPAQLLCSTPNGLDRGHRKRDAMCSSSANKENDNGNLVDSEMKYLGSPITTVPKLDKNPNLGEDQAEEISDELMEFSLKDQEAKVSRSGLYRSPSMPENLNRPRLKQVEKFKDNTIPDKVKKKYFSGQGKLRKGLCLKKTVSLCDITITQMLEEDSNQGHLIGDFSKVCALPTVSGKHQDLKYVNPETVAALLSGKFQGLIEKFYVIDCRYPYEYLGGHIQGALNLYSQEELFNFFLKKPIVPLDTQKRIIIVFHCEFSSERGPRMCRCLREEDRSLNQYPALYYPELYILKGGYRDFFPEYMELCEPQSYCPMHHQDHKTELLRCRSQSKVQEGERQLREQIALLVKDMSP
RESULT TYPE: inhibition (%)

[1] O=C1C=C(O)C(=O)C(c2c[nH]c3cc(OCc4ccccc4)ccc23)=C1O
[2] O=C1C=C(O)C(=O)C(c2c[nH]c3cccc(Br)c23)=C1O
[3] O=C1C=C(O)C(=O)C(c2c[nH]c3ccc(F)cc23)=C1O
[4] O=C1C=C(O)C(=O)C(c2c[nH]c3c(Br)cccc23)=C1O
input: Order the records, beginning with the lowest inhibition and ending with the highest. API: response body holds the labels in the requested order.
output: 4, 3, 2, 1

[I] O=C1C=C(O)C(=O)C(c2c[nH]c3c(Cl)cccc23)=C1O
[II] Cc1cccc2c(C3=C(O)C(O)=CC(=O)C3=O)c[nH]c12
[III] O=C1C=C(O)C(=O)C(c2c[nH]c3ccc(Br)cc23)=C1O
[IV] O=C1C=C(O)C(=O)C(c2c(C3CC3)[nH]c3ccccc23)=C1O
input: Arrange these compounds by their inhibition, starting with the largest number. API: response body holds the labels in the requested order.
output: I, III, II, IV
(I: 54%, III: 26%, II: 1%, IV: 0%)

[a] COc1cc2[nH]cc(C3=C(O)C(O)=CC(=O)C3=O)c2cc1OC
[b] O=C1C=C(O)C(=O)C(c2c[nH]c3c2ccc2ccccc23)=C1O
[c] CC(C)(C)c1[nH]c2ccccc2c1C1=C(O)C(O)=CC(=O)C1=O
input: Arrange these compounds by their inhibition, starting with the largest number. API: response body holds the labels in the requested order.
output: b, a, c

====

molecular target: M-phase inducer phosphatase 3 (Homo sapiens); test: Percent inhibition of cell division cycle 25 degree C at 50 uM
RESULT TYPE: inhibition (%)

Some solved cases for reference:
input: Quick check: inhibition of Cc1[nH]c2ccc(Cl)cc2c1C1=C(O)C(O)=CC(=O)C1=O ?
output: 30

input: Quick check: inhibition of O=C1C=C(O)C(=O)C(c2c[nH]c3ccc(Cl)cc23)=C1O ?
output: 45

[P] CC(C)(C)c1cccc2c(C3=C(O)C(O)=CC(=O)C3=O)c[nH]c12
[Q] Cc1ccc2c(C3=C(O)C(O)=CC(=O)C3=O)c[nH]c2c1C
input: Compare reported inhibition values for P and Q . Which is lower? State the label of the item chosen.
output: Q

====

target: M-phase inducer phosphatase 2 (Homo sapiens, UniProt P30305); test: Eight point inhibitory concentration against Cell division cycle 25B was determined
Sequence (P30305 whole entry): as the sequence (P30305 whole entry) above
pIC50: −log10 of the molar value.
RESULT TYPE: pIC50

Some solved cases for reference:
input: Quick check: pIC50 of O=C1C=C(O)C(=O)C(c2c[nH]c3cc(Cl)ccc23)=C1O ?
output: 4.85

input: Quick check: pIC50 of CC(C)=CCc1c(Cl)ccc2c(C3=C(O)C(O)=CC(=O)C3=O)c[nH]c12 ?
output: 5.14

input: Quick check: pIC50 of CC(C)=CCc1cccc2c(C3=C(O)C(O)=CC(=O)C3=O)c[nH]c12 ?
output: 5.25

[I] CC(C)(C)c1cccc2c(C3=C(O)C(O)=CC(=O)C3=O)c[nH]c12
[II] CCCc1cccc2c(C3=C(O)C(O)=CC(=O)C3=O)c[nH]c12
[III] O=C1C=C(O)C(=O)C(c2c[nH]c3ccccc23)=C1O
[IV] CC(C)=CCc1c(Cl)cc(Cl)c2c(C3=C(O)C(O)=CC(=O)C3=O)c[nH]c12
input: Arrange these compounds by their pIC50, starting with the largest number. API: response body holds the labels in the requested order.
output: IV, I, III, II

====

target: M-phase inducer phosphatase 3 (Homo sapiens) (UniProt P30307); assay: Percent inhibition of cell division cycle 25 degree C at 50 uM
RESULT TYPE: inhibition (%)

input: Quick check: inhibition of Cc1ccccc1Cc1cccc2c(C3=C(O)C(O)=CC(=O)C3=O)c[nH]c12 ?
output: 94

[I] Cc1cccc2[nH]cc(C3=C(O)C(O)=CC(=O)C3=O)c12
[II] Cc1[nH]c2c(C)cccc2c1C1=C(O)C(O)=CC(=O)C1=O
[III] CC(C)=CCC/C(C)=C/Cc1cccc2c(C3=C(O)C(O)=CC(=O)C3=O)c[nH]c12
input: Sort (3 molecules) by inhibition: min first. API: response body holds the labels in the requested order.
output: II, I, III

[A] CC(C)c1[nH]c2ccccc2c1C1=C(O)C(O)=CC(=O)C1=O
[B] O=C1C=C(O)C(=O)C(c2c[nH]c3ccccc23)=C1O
input: Compare reported inhibition values for A and B . Which is lower? State the label of the item chosen.
output: A
(A: 0%, B: 69%)
